# Tested on: OVCAR-3 ovarian
# test-summary: NCI tumour cell line growth inhibition, 48 h; in the data active = GI50 below about 0.43 µM; inactive = the rest
Where a SMILES comes first, the peptide text is derived from it. [ ]: non-standard residue; d: D form. The star is where a group is joined. NMeF = CN[C@@H](Cc1ccccc1)C(=O)O; NMeV = CN[C@H](C(=O)O)C(C)C; Boc = CC(C)(C)OC(=O)*; OBn = c1ccc(CO*)cc1
Classes used: active, inactive

molecule	classification
CSC1=Nc2c(c(C)c(C)n2COC(CO)CO)C2=NC(=O)CC(C)N12 (stereo not drawn)	inactive
O=C(NC1CCCCC1)NS(=O)(=O)c1ccc(-n2nc3c(c2-c2ccc(Cl)cc2)Cc2ccccc2-3)cc1	inactive
O=C1CCC(N2Cc3c(C#CCCCNC(=O)c4cc5c(o4)C(=O)c4ccccc4C5=O)cccc3C2=O)C(=O)N1 (stereo not drawn)	inactive
C/C(=C\CCc1ccsc1)CC/C=C(\C)CCCN1CCC(CO)CC1	inactive
CC(C)[C@@H](C(=O)N1CCC[C@H]1C(=O)OCc1ccccc1)N(C)C(=O)[C@H](C(C)C)N(C)C(=O)[C@H](Cc1ccccc1)N(C)C(=O)[C@H](NC(=O)OC(C)(C)C)C(C)C (Boc-[dV][NMeF][NMeV][NMeV]P-OBn)	inactive
CCn1c(-c2nonc2N)nc2cncc(C(=O)NCCNC)c21	inactive
Clc1ccc(C2=NN[C@H](c3cn(-c4ccccc4)nc3-c3ccccc3)C2)cc1	inactive
COc1cc(C2CC(c3ccccc3)=NN2C(C)=O)cc(OC)c1OC (stereo not drawn)	inactive
CC1OC(n2c3ccccc3c3c4c(c5c6ccccc6[nH]c5c32)C(=O)N(CCN2CCOCC2)C4=O)CC(O)C1O (stereo not drawn)	inactive
CC(C)n1c(=O)n(C)c2cnc3cc(F)c(-c4ccc(OCCCN5CCCCC5)nc4)cc3c21	inactive
Oc1ccc(-c2cn3cc(Cl)sc3n2)cc1	inactive
Cc1ccc(-c2nc(N)c(C#N)c3c2CCOc2c-3ccc3ccccc23)cc1	active
COc1ccc2c(c1)/C(=C\c1c(Cl)n(C)c3ccccc13)C(=O)N2	inactive

###

# reported TGI; entries follow
# Test system: NCI-H460 lung
# test-summary: NCI tumour cell line growth inhibition, 48 h
Where a SMILES comes first, the peptide text is derived from it. [ ]: non-standard residue; d: D form. The star is where a group is joined. NMeF = CN[C@@H](Cc1ccccc1)C(=O)O; NMeV = CN[C@H](C(=O)O)C(C)C; Boc = CC(C)(C)OC(=O)*; OBn = c1ccc(CO*)cc1

compound	target-system	TGI
COc1cc(C2CC(c3ccccc3)=NN2C(C)=O)cc(OC)c1OC (configuration not stated)	NCI-H460 lung	> 51 µM
COc1ccc(C(=O)C(C(=O)C(=O)NC2C3CC4CC(C3)CC2C4)c2ccc(OC)cc2)cc1 (configuration not stated)	NCI-H460 lung	> 100 µM
COc1ccccc1C(N)c1ccccc1 (configuration not stated)	NCI-H460 lung	> 100 µM
CCn1c(-c2nonc2N)nc2cncc(C(=O)NCCNC)c21	NCI-H460 lung	> 25 µM
CCOC(=O)c1nnsc1NN=C(C)C	NCI-H460 lung	> 100 µM
O=Nc1sc(=N\O)/c(=N/O)sc1NO	NCI-H460 lung	> 100 µM
CC(C)[C@@H](C(=O)N1CCC[C@H]1C(=O)OCc1ccccc1)N(C)C(=O)[C@H](C(C)C)N(C)C(=O)[C@H](Cc1ccccc1)N(C)C(=O)[C@H](NC(=O)OC(C)(C)C)C(C)C (Boc-[dV][NMeF][NMeV][NMeV]P-OBn)	NCI-H460 lung	> 100 µM
Cc1nc2c(O)cc3c4c(n(Cc5ccccc5)c3c2nc1C)C(=O)CCC4	NCI-H460 lung	> 100 µM
Clc1ccc(C2=NN[C@H](c3cn(-c4ccccc4)nc3-c3ccccc3)C2)cc1	NCI-H460 lung	16.9 µM
CN(C)CCNC1=CC(=O)c2nc3ccccc3c3ccnc1c23	NCI-H460 lung	9.91 µM
NCCCCN(CCCN)Cc1ccc2ccccc2c1	NCI-H460 lung	55.2 µM
Cc1sc(NC2=NC(=O)/C(=C\c3ccccc3)S2)nc1-c1nc(NC2=NC(=O)/C(=C\c3ccccc3)S2)sc1C	NCI-H460 lung	> 50 µM
CC1OC(OC2C(CO)OC(O[C@H]3CC[C@@]4(C)C(=CC[C@H]5[C@@H]6C[C@@H]7O[C@](O)(CC[C@H](C)COC8OC(CO)C(O)C(O)C8O)[C@@H](C)[C@@H]7[C@@]6(C)CC[C@@H]54)C3)C(OC3OC(C)C(O)C(O)C3O)C2O)C(O)C(O)C1O (some centres not stated)	NCI-H460 lung	> 45.7 µM
O=C(O)c1cccc2cccc(C(=O)O)c12.[Hg]	NCI-H460 lung	31.7 µM
O=C1C(c2c(O)[nH]c3ccccc23)=Nc2ccc(Br)cc21	NCI-H460 lung	> 100 µM
COc1c(O)c(O)c2c(c1O)C(=O)c1cc(C)cc(O)c1C2=O	NCI-H460 lung	> 78 µM
CCCCCCCCCCCCCCCCCC(=O)OCC(C[As](=O)(O)O)OC(=O)CCCCCCCCCCCCCCCCC (configuration not stated)	NCI-H460 lung	> 100 µM
Nc1ccc(-c2nc3ccccc3o2)cc1S	NCI-H460 lung	29.6 µM
CCC[CH2][Sn]1([CH2]CCC)[O]CC(CN2CCOCC2)[O]1 (configuration not stated)	NCI-H460 lung	26.5 µM
CCOC1(OCC)N=C(N)C2(C#N)C3(C(=O)N(C(C)C)N=C3C)C12C#N (configuration not stated)	NCI-H460 lung	> 100 µM
COCCN(CCOC)C(=O)COc1c2cc(C(C)(C)C)cc1Cc1cc(C(C)(C)C)cc(c1OCC(=O)N(CCOC)CCOC)Cc1cc(C(C)(C)C)cc(c1OCC(=O)N(CCOC)CCOC)Cc1cc(C(C)(C)C)cc(c1OCC(=O)N(CCOC)CCOC)Cc1cc(C(C)(C)C)cc(c1OCC(=O)N(CCOC)CCOC)C2	NCI-H460 lung	5.86 µM
COc1ccc(-c2nn(-c3cccc(NC(=O)c4cccc(C(F)(F)F)c4)c3)cc2-c2ccncc2)cc1Cl	NCI-H460 lung	> 100 µM
CCOC(=O)NC(=O)c1cn(CCCOC(=O)NCCCCCCNC(=O)OCCCn2cc(C(=O)NC(=O)OCC)c(=O)[nH]c2=O)c(=O)[nH]c1=O	NCI-H460 lung	> 100 µM
O=C(Cc1ccccc1)NC(c1ccc(Cl)cc1)c1c(O)ccc2ccccc12 (configuration not stated)	NCI-H460 lung	7.61 µM
C(=NCCCN1CCN(CCCN=Cc2cccc3ccccc23)CC1)c1cccc2ccccc12	NCI-H460 lung	> 100 µM
Nc1ncnc2c1ncn2C1C=CC(COS(N)(=O)=O)C1 (configuration not stated)	NCI-H460 lung	> 100 µM
Cc1ccc(-c2nc(N)c(C#N)c3c2CCOc2c-3ccc3ccccc23)cc1	NCI-H460 lung	> 46.4 µM
COc1ccccc1/C=C/c1c(N)ncnc1Nc1cccc(Cl)c1	NCI-H460 lung	57.1 µM
CNC(=O)NC(CCCCNC(=O)OCc1ccccc1)C(=O)OCc1ccccc1 (configuration not stated)	NCI-H460 lung	> 100 µM
COC(=O)c1cnn2c1ccc1ccccc12	NCI-H460 lung	> 100 µM
O=P(c1ccccc1)(c1ccccc1)c1ccc2c(c1)OCCOCCOCCOCCO2	NCI-H460 lung	> 100 µM
Clc1ccc(C2=C(c3ccccc3)C(c3ccc(Cl)cc3)N3C(=N[C@H]4CCCC[C@@H]43)N2)cc1 (some centres not stated)	NCI-H460 lung	11.1 µM
CC(=O)O[C@H]1CC[C@@]2(C)C(=C[C@H](c3ccc(O)cc3)[C@H]3[C@@H]4CC[C@H](OC(C)=O)[C@@]4(C)CC[C@@H]32)C1	NCI-H460 lung	40.6 µM
CC1=CC(=O)[C@@H](O)[C@]2(C)[C@H]3[C@@]4(O)OC[C@@]35[C@@H](C[C@@H]12)OC(=O)C(OC(=O)CC1=CCCC1)[C@H]5[C@@H](C)[C@H]4O (some centres not stated)	NCI-H460 lung	0.133 µM
CC(C)(C)C1(O)C=C(O)C(=O)N1NC(=O)c1ccccc1Nc1ccccc1 (configuration not stated)	NCI-H460 lung	> 100 µM
COC(=O)Cc1c(/C=C/C(C)(C)n2cnc(CCN3C(=O)CCC3=O)c2)[nH]c2ccccc12	NCI-H460 lung	> 100 µM
CO/N=C(\C(=O)Nc1cncs1)c1csc(N)n1	NCI-H460 lung	> 10 µM

###

# reported TGI; entries follow
# Test system: IGROV1 ovarian
# test-summary: NCI tumour cell line growth inhibition, 48 h
recorded-endpoint: TGI

compound	target-system	recorded-endpoint	value
CC1OC(n2c3ccccc3c3c4c(c5c6ccccc6[nH]c5c32)C(=O)N(CCN2CCOCC2)C4=O)CC(O)C1O (centres undefined)	IGROV1 ovarian	TGI	16 µM
Cn1c(=O)n2c(-c3ccccc3)c(-c3ccccc3)n2c1=O	IGROV1 ovarian	TGI	> 100 µM
CCn1c(-c2nonc2N)nc2cncc(C(=O)NCCNC)c21	IGROV1 ovarian	TGI	> 22.6 µM
Cc1nn(-c2ccccc2)c2nc3c(nc12)C1=NCCN1C(c1ccc(Cl)cc1)N3 (centres undefined)	IGROV1 ovarian	TGI	27.4 µM
Cc1c2cc[n+](C)cc2c(C)c2c1[nH]c1ccc(Cl)cc12	IGROV1 ovarian	TGI	38.2 µM
CC1=NC(C(C)C)C(=O)O1 (centres undefined)	IGROV1 ovarian	TGI	> 100 µM
CC(=O)C1=C(C)N2C(=NC3=C(CCc4ccccc43)C2c2cccc(Br)c2)S1 (centres undefined)	IGROV1 ovarian	TGI	> 100 µM
COc1c(O)c(O)c2c(c1O)C(=O)c1cc(C)cc(O)c1C2=O	IGROV1 ovarian	TGI	> 100 µM
COc1ccccc1C(N)c1ccccc1 (centres undefined)	IGROV1 ovarian	TGI	> 100 µM
CC1OC(OC2C(CO)OC(O[C@H]3CC[C@@]4(C)C(=CC[C@H]5[C@@H]6C[C@@H]7O[C@](O)(CC[C@H](CO)COC8OC(CO)C(O)C(O)C8O)[C@@H](C)[C@@H]7[C@@]6(C)CC[C@@H]54)C3)C(OC3OC(C)C(O)C(O)C3O)C2O)C(O)C(O)C1O (some centres undefined)	IGROV1 ovarian	TGI	> 100 µM
COc1ccc(C(=O)CC(=O)C(=O)Nc2ccc(C)c(C)c2)cc1	IGROV1 ovarian	TGI	> 100 µM
COC(=O)C(Cc1c(C2Nc3ccccc3C2CC(NC(C)=O)C(=O)OC)[nH]c2ccccc12)NC(C)=O (centres undefined)	IGROV1 ovarian	TGI	> 100 µM
C[C@]12CC[C@H]3[C@@H](CCC4=CC(=O)CC[C@@]43C)[C@@H]1CC[C@@H]2C(=O)Nc1ccc([N+](=O)[O-])c(C(F)(F)F)c1	IGROV1 ovarian	TGI	43.7 µM
CC(=O)c1ccc(NC(=O)C(=O)C(C(=O)c2ccc(Cl)c(Cl)c2)C2OC(=O)c3ccccc32)cc1 (centres undefined)	IGROV1 ovarian	TGI	65.5 µM
Nc1cccc2c1C1=NNC(=O)CC1C2 (centres undefined)	IGROV1 ovarian	TGI	> 100 µM
CC1C2(C)OC(=N)C(C#N)(C(C)O2)C1(C#N)C#N (centres undefined)	IGROV1 ovarian	TGI	> 100 µM
C(=NCCCN1CCN(CCCN=Cc2cccc3ccccc23)CC1)c1cccc2ccccc12	IGROV1 ovarian	TGI	> 100 µM
Cc1cc(O)c(C=NC(=S)c2ccccc2)c(=O)o1	IGROV1 ovarian	TGI	> 100 µM
C/C(=C\CCc1ccsc1)CC/C=C(\C)CCCN1CCC(CO)CC1	IGROV1 ovarian	TGI	10.8 µM

meta.source: PubChem BioAssay (NCI)
